Cited source for all entries: patent US20100279930A1

target: human Y4 receptor (human, UniProt P50391 1-375); experiment: 125I-PP displacement
Sequence (P50391 whole entry): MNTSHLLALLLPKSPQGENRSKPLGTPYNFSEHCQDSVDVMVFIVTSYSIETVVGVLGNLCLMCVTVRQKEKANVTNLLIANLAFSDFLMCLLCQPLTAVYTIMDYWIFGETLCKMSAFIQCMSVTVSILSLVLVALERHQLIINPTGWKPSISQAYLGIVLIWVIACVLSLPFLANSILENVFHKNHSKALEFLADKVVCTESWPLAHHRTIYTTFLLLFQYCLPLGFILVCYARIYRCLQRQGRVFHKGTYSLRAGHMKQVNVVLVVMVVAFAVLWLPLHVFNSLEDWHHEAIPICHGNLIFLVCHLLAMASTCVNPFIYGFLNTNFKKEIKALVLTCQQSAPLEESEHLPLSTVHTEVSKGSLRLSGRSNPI
measured parameter: pIC50
pIC50 is defined as minus the log10 of a concentration measured in mol/L.

Annotate the binder AAPLEPVYPGDNATPEQMAKYAADLRRYINKLTRPRY [compound of SEQ ID NO:348 (Ala 0, Lys19, Lys 30, code 4056385)] with its measured pIC50. 10.29
